FYI, the data here is from patent US12617752B2.

# TEST: Encapsulation efficiency of lipid nanoparticles (Quant-it RiboGreen RNA Assay)
# Format: physicochemical
# CONDITION_INFO: lipid nanoparticles with luciferase mRNA
# Experimental: […] The particle size and particle size dispersity index (PDI) of the prepared lipid nanoparticles were measured using a Zetasizer Pro (purchased from Malvern Instruments Ltd) and a DynaPro NanoStar (purchased from Wyatt) dynamic light scattering instrument. […] This parameter was measured by the method of Quant-it™ RiboGreen RNA Assay (purchased from Invitrogen). […]
# Lookup of reported Encapsulation efficiency (%) keyed by entry
I only need the number, in %, no unit after it.

Record excerpt, results attached:
{"COMPOUND": "CCCCCCCCCCC(=O)OCC(C)(C)CCCCCN(CCCCO)CCCCCCCC(=O)OCCCC(CCCCCC)CCCCCC [63b]", "UNIT_ABBREVIATION": "%", "Encapsulation efficiency (%)": 84.27}
{"COMPOUND": "CCCCCCCCCC(=O)OCCCC(C)(C)CCCN(CCCCO)CCCCCCCC(=O)OCC(CCCCCCC)CCCCCCC [64b]", "UNIT_ABBREVIATION": "%", "Encapsulation efficiency (%)": 89.27}
{"COMPOUND": "CCCCCCCCCOC(=O)CCCCCCCN(CCO)CCCCCCC(C)(C)C(=O)OC(CCCCCCCC)CCCCCCCC", "UNIT_ABBREVIATION": "%", "Encapsulation efficiency (%)": 94.61}

Please give the measured Encapsulation efficiency (%) for this compound: CCCCCCCCCC(=O)OCC(C)(C)CCCCCN(CCCO)CCCCCCC(=O)OCC(CCCCCCCC)CCCCCCCC [76b]
94.97

Name the reported Encapsulation efficiency (%) value associated with the compound CCCCCCCCCCCC(=O)OCC(C)(C)CCCCCN(CCCO)CCCCCCC(=O)OCC(CCCCCCCCCC)CCCCCCCCCC [86b]
94.74

Would you mind telling me what Encapsulation efficiency (%) value was observed for CCCCCCCCCCOC(=O)CCC(C)(C)CCCCN(CCCCO)CCCCCCCC(=O)OC(CCCCCCCCC)CCCCCCCCC [29a] ?
97.30

====

# TEST: Encapsulation efficiency of lipid nanoparticles (Quant-it RiboGreen RNA Assay)
# Type: physicochemical
# CONDITION_INFO: lipid nanoparticles with luciferase mRNA
We label by threshold. Values of Encapsulation efficiency (%) strictly beneath 90% are Satisfied. Values of 90% and up are Not satisfied.

Known results for compounds:
{"COMPOUND": "CCCCCCCC(CCCCCCC)COC(=O)CCCCC(C)(C)CCN(CCO)CCCCCCOC(=O)OCC(CCCCCCC)CCCCCCC [50a]", "ANSWER_LABEL": "Not satisfied"}
{"COMPOUND": "CCCCCCCCCCC(=O)OCC(C)(C)CCCCCN(CCCCCCCC(=O)OC(CCCCCCCCC)CCCCCCCCC)C(=O)SCCCN(C)C [39b]", "ANSWER_LABEL": "Not satisfied"}
{"COMPOUND": "CCCCCCCCCOC(=O)CCCCCCCN(CCCO)CCCCCCC(C)(C)C(=O)OC(CCCCCCCC)CCCCCCCC [4a]", "ANSWER_LABEL": "Not satisfied"}
{"COMPOUND": "CCCCCCCCCOC(=O)C(C)(C)CCCCCCN(CCO)CCCCCCOC(=O)OCCC(CCCCCC)CCCCCC [41a]", "ANSWER_LABEL": "Not satisfied"}
{"COMPOUND": "CCCCCCCCCCC(=O)OCCCC(C)(C)CCCN(CCCO)CCCCCCC(=O)OCC(CCCCCCCCC)CCCCCCCCC [114b]", "ANSWER_LABEL": "Not satisfied"}
{"COMPOUND": "CCCCCCCCCOC(=O)C(C)(C)CCCCCCN(CCO)CCCCCCOC(=O)OCC(CCCCCCC)CCCCCCC [40a]", "ANSWER_LABEL": "Not satisfied"}

Lab note: Encapsulation efficiency (%) threshold 90%. Does this compound come in strictly under it? CCCCCCCCCCOC(=O)OCCCCCCN(CCCCO)CCCCCC(C)(C)COC(=O)CC(CCCCCCC)CCCCCCC [30b]
Not satisfied

hey, is Encapsulation efficiency (%) for CCCCCCCCCCC(=O)OCC(C)(C)CCCCCN(CCCCCCCC(=O)OC(CCCCCCCCC)CCCCCCCCC)C(=O)SCCCCN(C)C [40b] lower than 90% or not?
Not satisfied

Here's an entry: CCCCCCCCCC(=O)OCC1(CCCCCN(CCO)CCCCCCCC(=O)OC(CCCCCCCC)CCCCCCCC)CC1 [14b] . Is its Encapsulation efficiency (%) below 90%?
Satisfied

Does the reported Encapsulation efficiency (%) of the following compound sit strictly below 90%? CCCCCCCCCC(=O)OCC(C)(C)CCCCCN(CCO)CCCCCCC(=O)OCC(CCCCCCCC)CCCCCCCC [67b]
Not satisfied

Problem: For the compound CCCCCCCCCCCOC(=O)CCCCCN(CCCCO)CCCCCCC(C)(C)C(=O)OC(CCCCCCCC)CCCCCCCC [12a] , is Encapsulation efficiency (%) under 90%?
Satisfied

Determine whether this compound shows Encapsulation efficiency (%) lower than 90% (ties excluded): CCCCC#CCCCOC(=O)CCCCCCCN(CCO)CCCCCCC(C)(C)C(=O)OC(CCCCCCCC)CCCCCCCC [56a]
Satisfied

Identify whether the compound CCCCCCCCCCCOC(=O)CCCCCN(CCO)CCCCCCC1(C(=O)OC(CCCCCCCC)CCCCCCCC)CCCC1 [22a] records Encapsulation efficiency (%) below 90%.
Not satisfied

Just wondering, is Encapsulation efficiency (%) of CCCCCCCCCC(=O)OCCCCCCCN(CCO)CCCCCCC(C)(C)C(=O)OC(CCCCCCCC)CCCCCCCC [6b] below 90%?
Satisfied

Problem: For the compound CCCCCCCCCC(=O)OCCCC(C)(C)CCCN(CCO)CCCCCCC(=O)OCCC(CCCCCCC)CCCCCCC [74b] , is Encapsulation efficiency (%) under 90%?
Not satisfied
